Data origin: patent US20200270586A1

- target of assay: LgTrip 3546 (with His tag; SEQ ID NO: 51)
- Sequence (chain, as listed by the source): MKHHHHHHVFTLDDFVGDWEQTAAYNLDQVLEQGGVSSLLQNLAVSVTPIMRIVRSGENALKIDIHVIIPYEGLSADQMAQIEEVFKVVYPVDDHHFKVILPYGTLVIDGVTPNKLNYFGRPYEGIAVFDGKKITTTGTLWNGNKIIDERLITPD
- assay protocol: luminescence complementation; SmTrip9 Kd
- conditions used: modification not given
readout type: Kd

- binder: "DKMLFTVTINKWK [786]"
  readout type: "Kd"
  endpoint result: "500 nM"
- binder: "DKMLFTVTIGKWK [749]"
  readout type: "Kd"
  endpoint result: "1060 nM"
- binder: "DKMLFTVTIQKWK [745]"
  readout type: "Kd"
  endpoint result: "200 nM"
- binder: "DKLLFTVTIEKWK [758]"
  readout type: "Kd"
  endpoint result: "190 nM"
- binder: "DRMLFRVTIQRWR [762]"
  readout type: "Kd"
  endpoint result: "120 nM"
- binder: "DKMLFTVTIEKWK [753]"
  readout type: "Kd"
  endpoint result: "150 nM"
- binder: "DKLLFTVTIGKWK [793]"
  readout type: "Kd"
  endpoint result: "540 nM"
- binder: "DKLLFTVTIEKYK [759]"
  readout type: "Kd"
  endpoint result: "560 nM"
